- Test system: auxin promoter::Venus
- procedure summary: Repression activity of H1 helices fused to IAA3 in the AtARCSc, fluorescence flow cytometry
- Format: cell-based, Saccharomyces cerevisiae
- test settings: H1-HA-IAA3 expressed off a plasmid, static ARC components integrated at URA3
measurement kind: Repression activity of H1-HA-IAA3 library constructs

R6E: TPL H1 mutant EELVFLILQFLDE, SEQ ID NO: 91
loss of repression
R6N: TPL H1 mutant NELVFLILQFLDE, SEQ ID NO: 94
loss of repression

---

- Tested on: auxin promoter::Venus
- procedure summary: Repression activity of H1 helices fused to IAA3 in the AtARCSc, fluorescence flow cytometry
- Type: cell-based, Saccharomyces cerevisiae
- test settings: H1-HA-IAA3 expressed off a plasmid, static ARC components integrated at URA3
measurement kind: Repression activity of H1-HA-IAA3 library constructs

R65Q: cancer variant H1 DEVNFLVYQYLQE, SEQ ID NO: 82
higher repression rates
R14W: cancer variant H1 DEVNFLVYWYLQE, SEQ ID NO: 83
higher repression rates
